Origin of measurements: paper PMC8445433

Target: DRB1*07:01 (Homo sapiens, UniProt P01903+P01911, A100R/A102G/A103Q/D57E/D86V/E43K/F76Y/K127E/L162R/M171V/P40G/Q125H/Q99D/R33Q/R42Y/R54Q/S133A/S66F/T210M/V115G/Y107V/Y59L/Y89S)
Assay: biochemical
Where a SMILES comes first, the peptide text is derived from it.

| Compound | Readout units | IC50 |
| --- | --- | --- |
| CC[C@H](C)[C@H](NC(=O)[C@H](CCC(N)=O)NC(=O)[C@H](CC(=O)O)NC(=O)[C@@H](N)CC(=O)O)C(=O)NCC(=O)N[C@@H](Cc1ccc(O)cc1)C(=O)N[C@@H](Cc1ccc(O)cc1)C(=O)N[C@@H](CCCNC(=N)N)C(=O)N[C@@H](CCCNC(=N)N)C(=O)N[C@@H](C)C(=O)N[C@H](C(=O)N[C@@H](CCCNC(=N)N)C(=O)N[C@@H](CCCNC(=N)N)C(=O)N[C@H](C(=O)N[C@@H](CCCNC(=N)N)C(=O)O)[C@@H](C)CC)[C@@H](C)O [Ncl_P17] (H-DDQIGYYRRATRRIR-OH) | µM | 0.111 |
| CC(C)C[C@H](NC(=O)[C@H](CC(N)=O)NC(=O)[C@H](CCCCN)NC(=O)[C@@H](NC(=O)[C@H](CCCNC(=N)N)NC(=O)[C@H](CO)NC(=O)[C@H](Cc1ccc(O)cc1)NC(=O)[C@@H](NC(=O)[C@H](Cc1ccc(O)cc1)NC(=O)[C@H](Cc1ccccc1)NC(=O)[C@H](CO)NC(=O)[C@@H]1CCCN1C(=O)[C@H](CCCCN)NC(=O)[C@@H](NC(=O)[C@@H](N)CC(C)C)C(C)C)C(C)C)C(C)C)C(=O)O [Env_11] (H-LVKPSFYVYSRVKNL-OH) | µM | 0.0053 |
| CC[C@H](C)[C@H](NC(=O)[C@H](CCCNC(=N)N)NC(=O)[C@H](CCCNC(=N)N)NC(=O)[C@@H](NC(=O)[C@H](C)NC(=O)[C@H](CCCNC(=N)N)NC(=O)[C@H](CCCNC(=N)N)NC(=O)[C@H](Cc1ccc(O)cc1)NC(=O)[C@@H](N)Cc1ccc(O)cc1)[C@@H](C)O)C(=O)N[C@@H](CCCNC(=N)N)C(=O)NCC(=O)NCC(=O)N[C@@H](CC(=O)O)C(=O)NCC(=O)N[C@@H](CCCCN)C(=O)O [Ncl_P18] (H-YYRRATRRIRGGDGK-OH) | µM | 0.111 |
